# measurement-target: human androgen receptor (AR) (Homo sapiens, UniProt P10275)
# Construct: expressed in transfected cells; host or cells: mouse myoblast C2C12 cells, transiently co-transfected
# Sequence (P10275 whole entry): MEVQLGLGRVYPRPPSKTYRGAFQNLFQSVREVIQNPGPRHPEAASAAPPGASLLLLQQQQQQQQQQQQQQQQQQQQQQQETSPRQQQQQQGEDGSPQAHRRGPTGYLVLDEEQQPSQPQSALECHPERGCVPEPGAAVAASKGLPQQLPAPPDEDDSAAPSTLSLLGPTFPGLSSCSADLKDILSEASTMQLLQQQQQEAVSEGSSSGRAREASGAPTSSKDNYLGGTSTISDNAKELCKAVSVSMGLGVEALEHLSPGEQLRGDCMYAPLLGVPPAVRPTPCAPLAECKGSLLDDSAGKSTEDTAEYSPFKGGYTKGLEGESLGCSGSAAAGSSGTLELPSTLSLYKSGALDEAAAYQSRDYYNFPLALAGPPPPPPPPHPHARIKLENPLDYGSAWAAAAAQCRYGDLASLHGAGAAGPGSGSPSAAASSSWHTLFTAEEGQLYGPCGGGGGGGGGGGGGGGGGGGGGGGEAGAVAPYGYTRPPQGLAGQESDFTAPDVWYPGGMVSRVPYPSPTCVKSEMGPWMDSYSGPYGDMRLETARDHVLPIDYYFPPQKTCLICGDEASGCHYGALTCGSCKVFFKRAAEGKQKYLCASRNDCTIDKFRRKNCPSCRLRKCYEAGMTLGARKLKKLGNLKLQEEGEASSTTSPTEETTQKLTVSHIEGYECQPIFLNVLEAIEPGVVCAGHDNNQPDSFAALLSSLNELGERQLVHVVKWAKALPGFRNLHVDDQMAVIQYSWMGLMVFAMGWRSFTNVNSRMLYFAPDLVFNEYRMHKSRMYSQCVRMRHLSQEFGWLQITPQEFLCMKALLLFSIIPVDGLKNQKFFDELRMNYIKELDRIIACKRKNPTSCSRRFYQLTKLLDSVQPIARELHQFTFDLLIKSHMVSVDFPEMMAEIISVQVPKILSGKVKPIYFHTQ
# assay-name: C2C12 AR/ARE reporter assay
# Assay type: cell-based
endpoint-name: EC50 (nM)
Use nM as the unit, but write only the number.

Example entries begin here.
compound	EC50, nM
CC(C)C(=O)NC1CCc2c(c3cc([N+](=O)[O-])ccc3n2Cc2cccc(F)c2)C1 (centres unmarked) [Example 61]	3.6
N#Cc1ccc2c(c1)c1c(n2Cc2cccc(F)n2)CC[C@@H](NC(=O)C2CC2)C1 [Example 195]	2.7
CC(C)C(=O)NC1CCc2c(c3cc(Br)ccc3n2Cc2cccc(C#N)c2)C1 (centres unmarked) [Example 38]	108

Continue with the compound presented below.
Look up EC50 for this compound: CC(C)C(=O)NC1CCc2c(c3cc(OC(F)(F)F)ccc3n2Cc2cccc(F)c2)C1 (centres unmarked) [Example 166]
6.2
